Entries annotated with measured IC50
- target.desc: human IDO1 (Homo sapiens)
- Sequence (P14902 whole entry): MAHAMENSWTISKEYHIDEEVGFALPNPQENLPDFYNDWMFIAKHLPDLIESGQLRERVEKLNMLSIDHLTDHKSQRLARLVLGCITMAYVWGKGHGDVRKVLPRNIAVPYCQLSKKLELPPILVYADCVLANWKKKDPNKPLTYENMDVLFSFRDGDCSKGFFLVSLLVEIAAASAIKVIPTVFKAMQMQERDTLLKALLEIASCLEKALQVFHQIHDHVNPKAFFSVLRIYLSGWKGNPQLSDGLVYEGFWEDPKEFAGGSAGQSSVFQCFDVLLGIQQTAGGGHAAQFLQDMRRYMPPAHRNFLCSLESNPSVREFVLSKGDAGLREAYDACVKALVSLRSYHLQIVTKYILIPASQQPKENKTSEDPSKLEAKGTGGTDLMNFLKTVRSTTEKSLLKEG
- test.method.notes: Assessment of human IDO-1 inhibitory activity in HEK cells (human IDO1/HEK293 cells, kynurenine read-out with Ehrlich reagent, absorbance 490 nm)
- Type: cell-based
- Parameters: expressed in transfected cells
- measurement.conditions: HEK Human IDO-1 cellular assay

Solved entries (count: 2):
CCc1ccc(Nc2cc([C@H](CC)CC(=O)O)ccc2N2CCOC[C@@H]2C(C)C)cc1 (single isomer, unassigned) [Example 91] :: < 50 nM
CCN(c1ccc(C(C)(C)CC(=O)O)cc1Nc1ccc(Cl)cc1)C1CCC(C)(O)CC1 (stereo not drawn) [Example 1] :: < 5 nM

Request: IC50, test system human IDO1 (Homo sapiens), entry CCOc1ccc(NC(=O)Nc2cc([C@@H](CC)CC(=O)O)ccc2N(CC(C)C)C2CCS(=O)(=O)CC2)cc1 (single isomer, unassigned) [Example 217]
> 50 nM

Request: IC50, test system human IDO1 (Homo sapiens), entry CC[C@@H](CC(=O)O)c1ccc(N(CC)C2CCOCC2)c(NC(=O)Nc2ccc(Cl)cc2F)c1 (single isomer, unassigned) [Example 489]
< 5 nM

Request: IC50, test system human IDO1 (Homo sapiens), entry Cc1ccc(CC(=O)Nc2cc(C(C)CC(=O)O)ccc2N(CC(C)C)C2CCOCC2)cc1 (single isomer, unassigned) [Example 966]
< 50 nM

Request: IC50, test system human IDO1 (Homo sapiens), entry CC[C@H](CC(=O)O)c1ccc(N(CC(C)(C)O)C2CCOCC2)c(Nc2ccc(Cl)c(OCC(F)(F)F)c2)c1 (single isomer, unassigned) [Example 205]
< 50 nM

Request: IC50, test system human IDO1 (Homo sapiens), entry CC(C)CN(c1ccc(C(COCC2CC2(F)F)CC(=O)O)cc1NC(=O)Nc1ccc(Cl)cc1F)C1CCCCC1 (racemic) [Example 1002]
< 50 nM
